Listing of entries alongside the reported IC50.
Biological target: Axl (Homo sapiens, UniProt P30530)
Construct: endogenous in cells; host or cells: HeLa cells
Sequence (P30530 26-894): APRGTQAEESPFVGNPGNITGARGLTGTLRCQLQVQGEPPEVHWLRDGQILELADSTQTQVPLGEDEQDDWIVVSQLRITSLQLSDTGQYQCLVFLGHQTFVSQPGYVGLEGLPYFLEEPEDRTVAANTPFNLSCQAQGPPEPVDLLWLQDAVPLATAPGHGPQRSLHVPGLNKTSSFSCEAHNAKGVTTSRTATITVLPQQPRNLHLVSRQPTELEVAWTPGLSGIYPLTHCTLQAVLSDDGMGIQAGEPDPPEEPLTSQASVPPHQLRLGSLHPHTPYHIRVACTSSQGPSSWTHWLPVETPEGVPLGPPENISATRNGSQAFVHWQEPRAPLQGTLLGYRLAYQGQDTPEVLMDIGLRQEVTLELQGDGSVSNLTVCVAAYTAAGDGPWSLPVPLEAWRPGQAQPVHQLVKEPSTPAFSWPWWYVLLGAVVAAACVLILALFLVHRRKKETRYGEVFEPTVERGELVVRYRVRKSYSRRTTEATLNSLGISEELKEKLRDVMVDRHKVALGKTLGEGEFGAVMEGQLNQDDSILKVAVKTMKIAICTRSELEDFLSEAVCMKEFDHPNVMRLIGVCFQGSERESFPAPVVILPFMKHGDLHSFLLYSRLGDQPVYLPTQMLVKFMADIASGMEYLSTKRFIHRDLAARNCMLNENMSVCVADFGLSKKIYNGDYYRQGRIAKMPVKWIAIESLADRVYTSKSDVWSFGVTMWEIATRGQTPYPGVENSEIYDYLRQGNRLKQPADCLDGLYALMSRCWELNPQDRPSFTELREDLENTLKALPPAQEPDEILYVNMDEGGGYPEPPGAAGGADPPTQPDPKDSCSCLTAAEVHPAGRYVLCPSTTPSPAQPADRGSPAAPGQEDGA
Experiment: Phospho-Akt in-cell Western assay (inhibition of Axl activity)
Assay type: cell-based
Settings: Table 7; Hela cells, Axl antibody cross-linking stimulation, phospho-Akt chemiluminescence

Study these solved cases before continuing.
Nc1nc(Nc2ccc(OCCN3CCCC3)cc2)nn1C(=O)Nc1ccc2c(c1)OCO2 [compound 36] :: 1 to 10 µM
CN(C)c1ccc(NC(=O)n2nc(Nc3ccc(OCCN4CCCCC4)cc3)nc2N)cc1 [compound 44] :: 1 to 10 µM
CC(=O)N(C)c1ccc(Nc2nc(N)n(C(=O)NC3CCCC3)n2)cc1 [compound 177] :: > 20 µM
COc1cccc(NC(=O)n2nc(Nc3ccc(OCCN4CCCC4)cc3)nc2N)c1 [compound 32] :: < 1 µM

Consider now this further compound.
Query: Specify reported IC50 for the compound shown: CC(=O)N(C)c1ccc(Nc2nc(N)n(C(=O)Nc3ccc(Cl)cc3)n2)cc1 [compound 174]
Result: > 20 µM

###

Listing of entries alongside the reported IC50.
target: Axl (Homo sapiens, UniProt P30530); construct: endogenous in cells; host or cells: HeLa cells; assay: Phospho-Akt in-cell Western assay (inhibition of Axl activity); assay type: cell-based; details: Table 2; Hela cells, Axl antibody cross-linking stimulation, phospho-Akt chemiluminescence

CC(C)Oc1ccc(C(=O)n2nc(N)nc2Nc2ccc(OCCN3CCCCC3)cc2)cc1 :: > 20 µM
CC(C)Oc1ccc(C(=O)n2nc(N)nc2Nc2ccc(N3CCCCC3)cc2)cc1 :: 10 to 20 µM
Cc1cc(C(=O)n2nc(N)nc2Nc2ccc3c(c2)OCCO3)ccc1F :: > 20 µM
Nc1nc(Nc2ccc3c(c2)OCCO3)n(C(=O)c2ccc(OCCC3OCCO3)cc2)n1 :: > 20 µM
Nc1nc(Nc2ccc3c(c2)OCCO3)n(C(=O)c2cccc(OCCC3OCCO3)c2)n1 :: > 20 µM

Query: Please tell me the measured IC50 for CC(C)Oc1ccc(C(=O)n2nc(N)nc2Nc2ccc(N3CCCC3)cc2)cc1 ; system: Axl (Homo sapiens, UniProt P30530).
Result: > 20 µM

Query: Please tell me the measured IC50 for Cc1ccc(C(=O)n2nc(N)nc2Nc2ccc3c(c2)OCCO3)cc1C ; system: Axl (Homo sapiens, UniProt P30530).
Result: > 20 µM

Query: Please tell me the measured IC50 for Nc1nc(Nc2ccc3c(c2)OCCO3)n(C(=O)c2ccccc2)n1 ; system: Axl (Homo sapiens, UniProt P30530).
Result: 1 to 10 µM

###

biological target: Axl (Homo sapiens, UniProt P30530); construct: endogenous in cells; host or cells: HeLa cells; assay: Phospho-Akt in-cell Western assay (inhibition of Axl activity); format: cell-based; details: inhibition of Axl activity, Table 1
pIC50: −log10 of the molar value.
propertyName: pIC50

Study these solved cases before continuing.
Nc1nc(Nc2ccc3c(c2)OCCO3)nn1C(=O)c1cccc(OCCN2CCOCC2)c1 :: < 4.70
NC(=O)COc1cccc(C(=O)n2nc(Nc3ccc4c(c3)OCCO4)nc2N)c1 :: < 4.70
CC(C)Oc1ccc(C(=O)n2nc(Nc3cccc(OC4CCCC4)c3)nc2N)cc1 :: < 4.70
Cc1cccc(C(=O)n2nc(Nc3ccc(OCCN4CCSCC4)cc3)nc2N)c1 :: 5.00 to 6.00
Nc1nc(Nc2ccc(Br)cc2)nn1C(=O)c1ccc(Cl)cc1 :: 5.00 to 6.00
COc1cccc(Nc2nc(N)n(C(=O)c3ccc(OC(C)C)cc3)n2)c1 :: 5.00 to 6.00

Query: Specify reported pIC50 for the compound shown: CC(C)Oc1ccc(C(=O)n2nc(Nc3ccc(OC4CCCC4)cc3)nc2N)cc1
Result: < 4.70

Query: Specify reported pIC50 for the compound shown: CC(C)Oc1ccc(C(=O)n2nc(Nc3cccc(OCc4ccccc4)c3)nc2N)cc1
Result: < 4.70

###

Listing of entries alongside the reported pIC50.
target: Axl (Homo sapiens, UniProt P30530); construct: endogenous in cells; host or cells: HeLa cells; assay: Phospho-Akt in-cell Western assay (inhibition of Axl activity); type: cell-based; conditions: Table 9; Hela cells, Axl antibody cross-linking stimulation, phospho-Akt chemiluminescence
pIC50: −log10 of the molar value.

Study these solved cases before continuing.
CC(C)(C)OC(=O)NC1CCOc2ccc(Nc3nc(N)n(C(=O)c4ccc5cc[nH]c5c4)n3)cc21 (stereo not drawn) [compound 276] :: 5.00 to 6.00
CS(=O)(=O)N1CCC(Nc2nc(N)n(C(=O)c3ccc4c(c3)OCCO4)n2)CC1 [compound 397] :: < 4.70

Consider now this further compound.
Query: Specify reported pIC50 for the compound shown: NC(=O)C1C2C=CC(C2)C1Nc1nc(N)n(C(=O)c2ccc3cc[nH]c3c2)n1 (stereo not drawn) [compound 356]
Result: < 4.70

###

target: Axl (Homo sapiens); construct: endogenous in cells; host or cells: HeLa cells; experiment: Phospho-Akt in-cell Western assay (inhibition of Axl activity); assay type: cell-based; settings: inhibition of Axl activity, Table 1
pIC50: −log10 of the molar value.
Listing of entries alongside the reported pIC50.

Study these solved cases before continuing.
Nc1nc(Nc2ccc3c(c2)OCCO3)nn1C(=O)c1ccccc1F :: 4.70 to 5.00
COc1ccc(Nc2nc(N)n(C(=O)c3ccc(OC(C)C)cc3)n2)cc1 :: 5.00 to 6.00
Nc1nc(Nc2ccc3c(c2)OCCO3)nn1C(=O)c1ccc(OCCN2CCCCC2)cc1 :: 5.00 to 6.00

Query: Specify reported pIC50 for the compound shown: COCOc1cccc(Nc2nc(N)n(C(=O)c3cccc(C)c3)n2)c1
Result: < 4.70

Query: Specify reported pIC50 for the compound shown: COCCOCOc1cccc(Nc2nc(N)n(C(=O)c3cccc(C)c3)n2)c1
Result: 5.00 to 6.00

###

Biological target: Axl (Homo sapiens, UniProt P30530)
Construct: endogenous in cells; host or cells: HeLa cells
Sequence (P30530 26-894): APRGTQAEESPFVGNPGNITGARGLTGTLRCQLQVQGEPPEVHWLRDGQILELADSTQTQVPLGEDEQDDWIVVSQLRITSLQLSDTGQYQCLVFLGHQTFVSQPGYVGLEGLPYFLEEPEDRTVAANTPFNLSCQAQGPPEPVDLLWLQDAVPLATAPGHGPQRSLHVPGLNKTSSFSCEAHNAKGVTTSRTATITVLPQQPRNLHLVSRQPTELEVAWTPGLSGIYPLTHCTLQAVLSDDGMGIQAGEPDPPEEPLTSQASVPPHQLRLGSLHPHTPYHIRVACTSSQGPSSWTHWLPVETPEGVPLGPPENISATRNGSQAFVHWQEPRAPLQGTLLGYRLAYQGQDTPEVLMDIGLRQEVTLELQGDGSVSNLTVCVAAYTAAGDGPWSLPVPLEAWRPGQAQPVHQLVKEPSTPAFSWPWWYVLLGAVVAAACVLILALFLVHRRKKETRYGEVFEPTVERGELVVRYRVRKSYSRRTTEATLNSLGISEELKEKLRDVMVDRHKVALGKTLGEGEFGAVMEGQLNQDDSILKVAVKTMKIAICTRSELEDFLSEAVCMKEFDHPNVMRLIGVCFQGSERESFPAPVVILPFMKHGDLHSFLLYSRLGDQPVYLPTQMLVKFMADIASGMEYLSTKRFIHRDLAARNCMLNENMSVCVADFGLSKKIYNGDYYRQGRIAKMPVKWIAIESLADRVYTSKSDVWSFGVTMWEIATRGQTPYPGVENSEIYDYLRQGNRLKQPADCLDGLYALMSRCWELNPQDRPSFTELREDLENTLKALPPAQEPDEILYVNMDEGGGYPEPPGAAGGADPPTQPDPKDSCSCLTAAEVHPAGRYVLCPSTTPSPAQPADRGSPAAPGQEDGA
Assay: Phospho-Akt in-cell Western assay (inhibition of Axl activity)
Assay type: cell-based
Conditions: inhibition of Axl activity, Table 1
Protocol: The compounds of the invention were tested in the following assay for their ability to inhibit Axl activity. Phospho-Akt in-Cell Western Assay […]
propertyName: IC50

Cc1cccc(C(=O)n2nc(Nc3cccc(OCC(=O)N4CCN(C(=O)OC(C)(C)C)CC4)c3)nc2N)c1 :: > 20 µM

Query: Specify reported IC50 for the molecule shown: CSc1ccc(C(=O)n2nc(Nc3ccc4c(c3)OCCO4)nc2N)cc1
Result: 1 to 10 µM

Query: Specify reported IC50 for the molecule shown: CC(=O)Oc1cccc(C(=O)n2nc(Nc3ccc4c(c3)OCCO4)nc2N)c1
Result: 1 to 10 µM

Query: Specify reported IC50 for the molecule shown: CC(C)Oc1ccc(C(=O)n2nc(Nc3ccc(OCCC4OCCO4)cc3)nc2N)cc1
Result: 1 to 10 µM
